tested on: Clinical isolates 07-W3-45 (VRE); assay: In vitro antibacterial activity (MIC) against VRE; format: cell-based, Vancomycin-resistant Enterococcus; conditions: clinically isolated drug-resistant strain 07-W3-45 from Shanghai Huashan Hospital
Exercise: for every item that follows, state its recorded MIC Clinical isolates 07-W3-45 (VRE).
Give a bare numeral; the unit µg/mL is implied.

IN: I'm curious: which MIC Clinical isolates 07-W3-45 (VRE) was measured for CNC(CC(C)C)C(=O)NC1C(=O)NC(CC(N)=O)C(=O)NC2C(=O)NC3C(=O)NC(C(=O)NC(C(=O)O)c4cc(O)cc(O)c4-c4cc3ccc4O)C(OC3CC(C)(N)C(O)C(C)O3)c3ccc(c(Cl)c3)Oc3cc2cc(c3OC2OC(CO)C(O)C(O)C2OC2CC(C)(NCc3ccc(OCCc4ccccc4)cc3)C(O)C(C)O2)Oc2ccc(cc2Cl)C1O (centres unmarked) tested on Clinical isolates 07-W3-45 (VRE)?
OUT: 2

IN: Form entry - test system: Clinical isolates 07-W3-45 (VRE); read-out: MIC Clinical isolates 07-W3-45 (VRE); compound: CNC(CC(C)C)C(=O)NC1C(=O)NC(CC(N)=O)C(=O)NC2C(=O)NC3C(=O)NC(C(=O)NC(C(=O)O)c4cc(O)cc(O)c4-c4cc3ccc4O)C(OC3CC(C)(N)C(O)C(C)O3)c3ccc(c(Cl)c3)Oc3cc2cc(c3OC2OC(CO)C(O)C(O)C2OC2CC(C)(NCc3ccc(NCc4ccc(Cl)cc4)cc3)C(O)C(C)O2)Oc2ccc(cc2Cl)C1O (centres unmarked)
OUT: 0.2

IN: Look up MIC Clinical isolates 07-W3-45 (VRE) with Clinical isolates 07-W3-45 (VRE) for this compound: CNC(CC(C)C)C(=O)NC1C(=O)NC(CC(N)=O)C(=O)NC2C(=O)NC3C(=O)NC(C(=O)NC(C(=O)O)c4cc(O)cc(O)c4-c4cc3ccc4O)C(OC3CC(C)(N)C(O)C(C)O3)c3ccc(c(Cl)c3)Oc3cc2cc(c3OC2OC(CO)C(O)C(O)C2OC2CC(C)(NCc3ccc(OCCc4cccc(Br)c4)cc3)C(O)C(C)O2)Oc2ccc(cc2Cl)C1O (centres unmarked)
OUT: 1

IN: Form: Entry = CNC(CC(C)C)C(=O)NC1C(=O)NC(CC(N)=O)C(=O)NC2C(=O)NC3C(=O)NC(C(=O)NC(C(=O)O)c4cc(O)cc(O)c4-c4cc3ccc4O)C(OC3CC(C)(N)C(O)C(C)O3)c3ccc(c(Cl)c3)Oc3cc2cc(c3OC2OC(CO)C(O)C(O)C2OC2CC(C)(NCc3ccc(NCCc4ccc(OC)cc4)cc3)C(O)C(C)O2)Oc2ccc(cc2Cl)C1O (centres unmarked) | System = Clinical isolates 07-W3-45 (VRE) | MIC Clinical isolates 07-W3-45 (VRE) = ____
OUT: 1

IN: Report MIC Clinical isolates 07-W3-45 (VRE) for CNC(CC(C)C)C(=O)NC1C(=O)NC(CC(N)=O)C(=O)NC2C(=O)NC3C(=O)NC(C(=O)NC(C(=O)O)c4cc(O)cc(O)c4-c4cc3ccc4O)C(OC3CC(C)(N)C(O)C(C)O3)c3ccc(c(Cl)c3)Oc3cc2cc(c3OC2OC(CO)C(O)C(O)C2OC2CC(C)(NCc3ccc(NCCc4ccccc4)cc3)C(O)C(C)O2)Oc2ccc(cc2Cl)C1O (centres unmarked) tested on Clinical isolates 07-W3-45 (VRE).
OUT: 2

IN: Record lookup: for Clinical isolates 07-W3-45 (VRE), what MIC Clinical isolates 07-W3-45 (VRE) belongs to CNC(CC(C)C)C(=O)NC1C(=O)NC(CC(N)=O)C(=O)NC2C(=O)NC3C(=O)NC(C(=O)NC(C(=O)O)c4cc(O)cc(O)c4-c4cc3ccc4O)C(OC3CC(C)(N)C(O)C(C)O3)c3ccc(c(Cl)c3)Oc3cc2cc(c3OC2OC(CO)C(O)C(O)C2OC2CC(C)(NCc3ccc(NCCc4ccc(C(F)(F)F)cc4)cc3)C(O)C(C)O2)Oc2ccc(cc2Cl)C1O (centres unmarked) ?
OUT: 0.25

IN: Record lookup: for Clinical isolates 07-W3-45 (VRE), what MIC Clinical isolates 07-W3-45 (VRE) belongs to CNC(CC(C)C)C(=O)NC1C(=O)NC(CC(N)=O)C(=O)NC2C(=O)NC3C(=O)NC(C(=O)NC(C(=O)O)c4cc(O)cc(O)c4-c4cc3ccc4O)C(OC3CC(C)(N)C(O)C(C)O3)c3ccc(c(Cl)c3)Oc3cc2cc(c3OC2OC(CO)C(O)C(O)C2OC2CC(C)(NCc3ccc(OCCCc4ccc(Cl)cc4)cc3)C(O)C(C)O2)Oc2ccc(cc2Cl)C1O (centres unmarked) ?
OUT: 2

IN: Provide the documented MIC Clinical isolates 07-W3-45 (VRE) with Clinical isolates 07-W3-45 (VRE) as the system for CNC(CC(C)C)C(=O)NC1C(=O)NC(CC(N)=O)C(=O)NC2C(=O)NC3C(=O)NC(C(=O)NC(C(=O)O)c4cc(O)cc(O)c4-c4cc3ccc4O)C(OC3CC(C)(N)C(O)C(C)O3)c3ccc(c(Cl)c3)Oc3cc2cc(c3OC2OC(CO)C(O)C(O)C2OC2CC(C)(NCc3ccc(SCCc4ccc(Cl)cc4)cc3)C(O)C(C)O2)Oc2ccc(cc2Cl)C1O (centres unmarked)
OUT: 0.5
